// data source = ChEMBL document CHEMBL5523677

- Test: Drug concentration in tumor of male nude mouse xenografted with KRAS G12C mutant positive human NCI-H1373 cells at 20 mg/kg, po administered as single dose and measured after 6 hrs
- Type: ADME, organism-based, Neoplasm
- Setup conditions: read-out: Ct
Experimental readout: concentration at 6 h

Inquiry: Quickly give me recorded concentration at 6 h for C=CC(=O)N1CC2(CCN(c3nc(OC4CCN(C)CC4)nc4c(OCC)c(-c5c(C)ccc6[nH]ncc56)c(C=C)cc34)CC2)C1
Reply text: 7 nM

----------
- Test: Aqueous solubility of compound in Japanese Pharmacopoeia 2nd fluid at pH 6.8 at 130 umol/L incubated for 20 hrs by liquid chromatography
- Format: physicochemical
- Setup conditions: dose 130 µmol/L
In this section, each of the compounds is paired with its reported solubility at 20 h, 130 µM.

// below: answered compounds
[[record]]
smi = "C=CC(=O)N1CC2(CCN(c3nc(OC4CCN(C)CC4)nc4c(OCC)c(-c5c(C)ccc6[nH]ncc56)c(C=C)cc34)CC2)C1"
assay_value = "> 100 µM"

[[record]]
smi = "C=CC(=O)N1CC2(CCN(c3nc(OC4CCN(C)CC4)nc4c(Cl)c(-c5c(C)ccc6[nH]ncc56)c(F)cc34)CC2)C1"
assay_value = "> 100 µM"


Inquiry: Quickly give me recorded solubility at 20 h, 130 µM for C=CC(=O)N1CC2(CCN(c3nc(OC4CCN(C)CC4)nc4c(OC5CCC5)c(-c5c(C)ccc6[nH]ncc56)c(C=C)cc34)CC2)C1
Reply text: > 100 µM

----------
- Test: Drug concentration in tumor of male nude mouse xenografted with KRAS G12C mutant positive human NCI-H1373 cells at 60 mg/kg, po administered as single dose and measured after 6 hrs
- Type: ADME, organism-based, Neoplasm
- Setup conditions: read-out: Ct
Experimental readout: concentration at 6 h (nM)
Just the number please, in nM, no unit attached.

Inquiry: Quickly give me recorded concentration at 6 h for C=CC(=O)N1CC2(CCN(c3nc(OC4CCN(C)CC4)nc4c(OCC)c(-c5c(C)ccc6[nH]ncc56)c(C=C)cc34)CC2)C1
Reply text: 81

----------
- Test: Drug concentration in plasma of male nude mouse xenografted with KRAS G12C mutant positive human NCI-H1373 cells at 60 mg/kg, po administered as single dose and measured after 6 hrs
- Assay type: ADME, organism-based
Experimental readout: concentration at 6 h (nM)
Just the number please, in nM, no unit attached.

Inquiry: Quickly give me recorded concentration at 6 h for C=CC(=O)N1CC2(CCN(c3nc(OC4CCN(C)CC4)nc4c(OCC)c(-c5c(C)ccc6[nH]ncc56)c(C=C)cc34)CC2)C1
Reply text: 110

----------
- Test: Drug concentration in tumor of male nude mouse xenografted with KRAS G12C mutant positive human NCI-H1373 cells at 3 mg/kg, sc administered as single dose and measured after 6 hrs
- Type: ADME, organism-based, Neoplasm
- Setup conditions: read-out: Ct
Experimental readout: concentration at 6 h (nM)
Just the number please, in nM, no unit attached.

Inquiry: Quickly give me recorded concentration at 6 h for C=CC(=O)N1CC2(CCN(c3nc(OC4CCN(C)CC4)nc4c(OCC)c(-c5c(C)ccc6[nH]ncc56)c(C=C)cc34)CC2)C1
Reply text: 170

----------
- Test: Drug concentration in plasma of male nude mouse xenografted with KRAS G12C mutant positive human NCI-H1373 cells at 20 mg/kg, po administered as single dose and measured after 6 hrs
- Type: ADME, organism-based
Experimental readout: concentration at 6 h (nM)
Just the number please, in nM, no unit attached.

Inquiry: Quickly give me recorded concentration at 6 h for C=CC(=O)N1CC2(CCN(c3nc(OC4CCN(C)CC4)nc4c(OCC)c(-c5c(C)ccc6[nH]ncc56)c(C=C)cc34)CC2)C1
Reply text: 21

----------
- Test: Inhibition of biotinylated GDP-bound Avi-tagged KRAS G12C mutant (1 to 185 residues)/SOS/GST-tagged c-Raf (unknown origin) complex formation incubated for 1 hr in presence of GTP by fluorescence based analysis
- Design: species or system Homo sapiens
Experimental readout: IC50 (nM)
Just the number please, in nM, no unit attached.

// below: answered molecules
[[record]]
smi = "C=CC(=O)N1CC2(CCN(c3nc(OC4CCN(CC)CC4)nc4cc(-c5c(C)ccc6[nH]ncc56)c(Cl)cc34)CC2)C1"
experimental_readout = "IC50"
assay_value = 250

[[record]]
smi = "C=CC(=O)N1CC2(CCN(c3nc(OC4CCN(CC)CC4)nc4c(F)c(-c5c(C)ccc6[nH]ncc56)c(CC)cc34)CC2)C1"
experimental_readout = "IC50"
assay_value = 59


Inquiry: Quickly give me recorded IC50 for C=CC(=O)N1CC2(CCN(c3nc(OC4CCN(CC)CC4)nc4c(C#N)c(-c5c(C)ccc6[nH]ncc56)c(Cl)cc34)CC2)C1
Reply text: 280

Inquiry: Quickly give me recorded IC50 for C=CC(=O)N1CC2(CCN(c3nc(OC4CCN(CC)CC4)nc4c(F)c(-c5c(C)ccc6[nH]ncc56)c(C=C)cc34)CC2)C1
Reply text: 41

Inquiry: Quickly give me recorded IC50 for C=CC(=O)N1CC2(CCN(c3nc(OC4CCN(CC)CC4)nc4c(F)c(-c5c(C)ccc6[nH]ncc56)c(C(=C)C)cc34)CC2)C1
Reply text: 100

Inquiry: Quickly give me recorded IC50 for C=CC(=O)N1CC2(CCN(c3nc(OC4CCN(CC)CC4)nc4c(OC)c(-c5c(C)ccc6[nH]ncc56)c(Cl)cc34)CC2)C1
Reply text: 46

Inquiry: Quickly give me recorded IC50 for C#Cc1cc2c(N3CCC4(CC3)CN(C(=O)C=C)C4)nc(OC3CCN(CC)CC3)nc2c(F)c1-c1c(C)ccc2[nH]ncc12
Reply text: 56

----------
- Test: Inhibition of biotinylated GDP-bound Avi-tagged KRAS G12C mutant (1 to 185 residues)/SOS/GST-tagged c-Raf (unknown origin) complex formation incubated for 1 hr in presence of GTP by fluorescence based analysis
- Parameters: species or system Homo sapiens
Experimental readout: IC50 (nM)
Just the number please, in nM, no unit attached.

// below: answered compounds
[[record]]
smi = "C=CC(=O)N1CC2(CCN(c3nc(OC4CCN(CC)CC4)nc4c(F)c(-c5c(C)ccc6[nH]ncc56)c(C5CC5)cc34)CC2)C1"
units_symbol = "nM"
assay_value = 51

[[record]]
smi = "C=CC(=O)N1CC2(CCN(c3nc(OC4CCN(CC)CC4)nc4c(OC5CCC5)c(-c5c(C)ccc6[nH]ncc56)c(Cl)cc34)CC2)C1"
units_symbol = "nM"
assay_value = 57

[[record]]
smi = "C=CC(=O)N1CC2(CCN(c3nc(OC4CCN(CC)CC4)nc4c(OC5CC5)c(-c5c(C)ccc6[nH]ncc56)c(Cl)cc34)CC2)C1"
units_symbol = "nM"
assay_value = 56


Next:
Inquiry: Quickly give me recorded IC50 for C=CC(=O)N1CC2(CCN(c3nc(OC4CCN(CC)CC4)nc4c(OCC)c(-c5c(C)ccc6[nH]ncc56)c(Cl)cc34)CC2)C1
Reply text: 50
